Experiment: Stability experiment (storage of crystal forms, HPLC)
Assay type: physicochemical
Settings: 5° C. 0 d
ENDPOINT: RRT (%) 1.00

compound="Cc1cc(N2CCN(Cc3cc(F)c(C(=O)NS(=O)(=O)C4CC4)cc3Cl)CC2)ccc1Cl [crystal form D]" reported_measurement=99.90
compound="Cc1cc(N2CCN(Cc3cc(F)c(C(=O)NS(=O)(=O)C4CC4)cc3Cl)CC2)ccc1Cl [crystal form F]" reported_measurement=99.86
compound="Cc1cc(N2CCN(Cc3cc(F)c(C(=O)NS(=O)(=O)C4CC4)cc3Cl)CC2)ccc1Cl [crystal form A]" reported_measurement=99.84
compound="Cc1cc(N2CCN(Cc3cc(F)c(C(=O)NS(=O)(=O)C4CC4)cc3Cl)CC2)ccc1Cl [crystal form E-3]" reported_measurement=99.79

====

Experiment: Stability experiment (storage of crystal forms, HPLC)
Assay type: physicochemical
Conditions: 60° C. 7 d
ENDPOINT: RRT (%) 0.86

compound="Cc1cc(N2CCN(Cc3cc(F)c(C(=O)NS(=O)(=O)C4CC4)cc3Cl)CC2)ccc1Cl [crystal form F]" reported_measurement=0.03
compound="Cc1cc(N2CCN(Cc3cc(F)c(C(=O)NS(=O)(=O)C4CC4)cc3Cl)CC2)ccc1Cl [crystal form D]" reported_measurement=0.03
compound="Cc1cc(N2CCN(Cc3cc(F)c(C(=O)NS(=O)(=O)C4CC4)cc3Cl)CC2)ccc1Cl [crystal form A]" reported_measurement=0.05
compound="Cc1cc(N2CCN(Cc3cc(F)c(C(=O)NS(=O)(=O)C4CC4)cc3Cl)CC2)ccc1Cl [crystal form E-3]" reported_measurement=0.08

====

Assay: Hygroscopicity experiment (DVS)
Format: physicochemical
ENDPOINT: hygroscopicity (DVS curve)

compound="Cc1cc(N2CCN(Cc3cc(F)c(C(=O)NS(=O)(=O)C4CC4)cc3Cl)CC2)ccc1Cl [crystal form E-3]" endpoint="hygroscopicity (DVS curve)" reported_measurement="has hygroscopicity"
compound="Cc1cc(N2CCN(Cc3cc(F)c(C(=O)NS(=O)(=O)C4CC4)cc3Cl)CC2)ccc1Cl [crystal form F]" endpoint="hygroscopicity (DVS curve)" reported_measurement="has hygroscopicity"
compound="Cc1cc(N2CCN(Cc3cc(F)c(C(=O)NS(=O)(=O)C4CC4)cc3Cl)CC2)ccc1Cl [crystal form I]" endpoint="hygroscopicity (DVS curve)" reported_measurement="slightly hygroscopic"
compound="Cc1cc(N2CCN(Cc3cc(F)c(C(=O)NS(=O)(=O)C4CC4)cc3Cl)CC2)ccc1Cl [crystal form A]" endpoint="hygroscopicity (DVS curve)" reported_measurement="slightly hygroscopic"
compound="Cc1cc(N2CCN(Cc3cc(F)c(C(=O)NS(=O)(=O)C4CC4)cc3Cl)CC2)ccc1Cl [crystal form IV]" endpoint="hygroscopicity (DVS curve)" reported_measurement="slightly hygroscopic"
compound="Cc1cc(N2CCN(Cc3cc(F)c(C(=O)NS(=O)(=O)C4CC4)cc3Cl)CC2)ccc1Cl [crystal form V]" endpoint="hygroscopicity (DVS curve)" reported_measurement="slightly hygroscopic"
compound="Cc1cc(N2CCN(Cc3cc(F)c(C(=O)NS(=O)(=O)C4CC4)cc3Cl)CC2)ccc1Cl [crystal form VII]" endpoint="hygroscopicity (DVS curve)" reported_measurement="slightly hygroscopic"
compound="Cc1cc(N2CCN(Cc3cc(F)c(C(=O)NS(=O)(=O)C4CC4)cc3Cl)CC2)ccc1Cl [crystal form VI]" endpoint="hygroscopicity (DVS curve)" reported_measurement="slightly hygroscopic"
compound="Cc1cc(N2CCN(Cc3cc(F)c(C(=O)NS(=O)(=O)C4CC4)cc3Cl)CC2)ccc1Cl [crystal form III]" endpoint="hygroscopicity (DVS curve)" reported_measurement="slightly hygroscopic"
